Origin of values: ChEMBL document CHEMBL1125404

# method summary: pKa value (pyridine)
# Format: physicochemical
result type: pKa
Respond with the number and no other words.

Fill blank: measured pKa of the molecule COc1cnc(C[S+]([O-])c2nc3cc(OC(F)F)ccc3[nH]2)c(C)c1OC (centres undefined) is ____.
3.73

For COc1ccnc(C[S+]([O-])c2nc3cc(OC(F)(F)C(F)F)ccc3[nH]2)c1OC (centres undefined) then?
3.86

Same thing, different molecule: COc1ccnc(C[S+]([O-])c2nc3cc(OC(F)F)ccc3[nH]2)c1OC (centres undefined) [PANTOPRAZOLE]
3.92

Again, but for COc1cnc(C[S+]([O-])c2nc3cc(OC(F)F)ccc3[nH]2)cc1OC (centres undefined)
3.75

Same question for COc1ccnc(C[S+]([O-])c2nc3cc4c(cc3[nH]2)OC(F)(F)O4)c1OC (centres undefined) please.
3.84

Record: COc1cc(C[S+]([O-])c2nc3cc(OC(F)(F)C(F)F)ccc3[nH]2)ncc1C (centres undefined)
4.95

Ok, now COc1c(C)cnc(C[S+]([O-])c2nc3cc(OC(F)F)ccc3[nH]2)c1C (centres undefined)
4.16

Please give the result for COc1ccc2[nH]c([S+]([O-])Cc3ncc(C)c(OC)c3C)nc2c1 (centres undefined) [OMEPRAZOLE] too.
4.13

Repeat for the following molecule: Cc1c(OCC(F)(F)F)ccnc1C[S+]([O-])c1nc2ccccc2[nH]1 (centres undefined) [LANSOPRAZOLE]
4.01

###

# method summary: t1/2 (pH 5)
# Assay type: ADME
Label Not met if half-life falls below 2 h; label Met in every other case.

Determine whether this molecule has half-life no lower than 2 h: COc1ccnc(C[S+]([O-])c2nc3cc(OC(F)F)ccc3[nH]2)c1C (stereo not given)
Not met

Moving on to COc1ccnc(C[S+]([O-])c2nc3cc(OC(F)F)ccc3[nH]2)c1 (stereo not given)
Not met

Same question for Cc1c(OCC(F)(F)F)ccnc1C[S+]([O-])c1nc2ccccc2[nH]1 (stereo not given) please.
Not met

Similarly, COc1ccc2[nH]c([S+]([O-])Cc3ncc(C)c(OC)c3C)nc2c1 (stereo not given) ?
Not met

Try the molecule COc1cc(C[S+]([O-])c2nc3cc(OC(F)(F)C(F)F)ccc3[nH]2)ncc1C (stereo not given)
Not met

Same again, this time with COc1cc2[nH]c([S+]([O-])Cc3nccc(OC)c3OC)nc2cc1OC(F)F (stereo not given)
Met

And then COc1ccnc(C[S+]([O-])c2nc3cc4c(cc3[nH]2)OC(F)(F)O4)c1 (stereo not given) , what is it?
Not met

Again, but for COc1cnc(C[S+]([O-])c2nc3cc(OC(F)F)ccc3[nH]2)c(C)c1OC (stereo not given)
Met

Also need COc1ccnc(C[S+]([O-])c2nc3cc(OCC(F)(F)F)ccc3[nH]2)c1OC (stereo not given) , thanks.
Met

How about COc1ccnc(C[S+]([O-])c2nc3cc(F)c(OC(F)F)cc3[nH]2)c1OC (stereo not given) ?
Met

Can you check COc1ccnc(C[S+]([O-])c2nc3cc4c(cc3[nH]2)OC(F)(F)O4)c1OC (stereo not given) next?
Met

Repeat for the following molecule: COc1c(C)cnc(C[S+]([O-])c2nc3cc(OC(F)F)ccc3[nH]2)c1C (stereo not given)
Not met

Would you kindly repeat that for COc1ccnc(C[S+]([O-])c2nc3cc(OC(F)(F)C(F)F)ccc3[nH]2)c1C (stereo not given) ?
Not met

Repeat for the following molecule: COc1cc2[nH]c([S+]([O-])Cc3nccc(OC)c3C)nc2cc1OC(F)F (stereo not given)
Not met

Please give the result for COc1ccnc(C[S+]([O-])c2nc3cc(OC(F)(F)C(F)F)ccc3[nH]2)c1 (stereo not given) too.
Not met

And the next one, COc1ccnc(C[S+]([O-])c2nc3cc(OC(F)(F)C(F)F)ccc3[nH]2)c1OC (stereo not given) ?
Met

Another molecule to look at: COc1cnc(C[S+]([O-])c2nc3cc(OC(F)F)ccc3[nH]2)cc1OC (stereo not given)
Met

What do you get for COc1ccnc(C[S+]([O-])c2nc3cc(F)c(OC(F)F)cc3[nH]2)c1C (stereo not given) ?
Not met

Now give it for COc1cnc(C[S+]([O-])c2nc3cc(OC(F)(F)C(F)F)ccc3[nH]2)c(C)c1OC (stereo not given) too.
Met

Try this molecule too: COc1cnc(C[S+]([O-])c2nc3cc(OC(F)(F)C(F)F)ccc3[nH]2)cc1OC (stereo not given)
Met

###

# experimental target: Potassium-transporting ATPase (Oryctolagus cuniculus)
# method summary: In vitro evaluation for the inhibition of H+/K+ ATPase at pH < 3 in the gastric glands of isolated rabbit stomach.
Would you mind telling me the reported log10(IC50) of each entry?
In plain terms, each number is the log10 of measured IC50 in µM.

Consider the compound shown here: COc1cnc(C[S+]([O-])c2nc3cc(OC(F)F)ccc3[nH]2)cc1OC (stereo not given) What is its recorded log10(IC50)?
1.50

Now consider COc1ccnc(C[S+]([O-])c2nc3cc4c(cc3[nH]2)OC(F)(F)O4)c1 (stereo not given) .
0.40

Another compound: COc1ccnc(C[S+]([O-])c2nc3cc(F)c(OC(F)F)cc3[nH]2)c1C (stereo not given)
0.50

COc1c(C)cnc(C[S+]([O-])c2nc3cc(OC(F)F)ccc3[nH]2)c1C (stereo not given) ?
-0.30

Another compound to check: COc1cnc(C[S+]([O-])c2nc3cc4c(cc3[nH]2)OC(F)(F)O4)c(C)c1OC (stereo not given)
1.20

###

# method summary: t1/2 (pH 3)
# Type: ADME
result type: half-life
Don't forget the unit after the number, please.

Can you look up the measured half-life of COc1cc2[nH]c([S+]([O-])Cc3nccc(OC)c3OC)nc2cc1OC(F)F (stereo unspecified) for me?
15 min

Quick one: COc1ccnc(C[S+]([O-])c2nc3cc(OCC(F)(F)F)ccc3[nH]2)c1C (stereo unspecified)
5 min

Entry to check: COc1ccnc(C[S+]([O-])c2nc3cc(F)c(OC(F)F)cc3[nH]2)c1C (stereo unspecified)
8 min

Continue with COc1c(C)cnc(C[S+]([O-])c2nc3cc(OC(F)F)ccc3[nH]2)c1C (stereo unspecified)
12 min

And for COc1ccnc(C[S+]([O-])c2nc3cc(OCC(F)(F)F)ccc3[nH]2)c1OC (stereo unspecified) ?
11 min

Now the same for COc1ccnc(C[S+]([O-])c2nc3cc(OC(F)(F)C(F)F)ccc3[nH]2)c1OC (stereo unspecified)
18 min

###

# method summary: pKa value (pyridine)
# Format: physicochemical
result type: pKa
// no unit, no text: just the number

Recorded pKa for COc1ccnc(C[S+]([O-])c2nc3cc(OCC(F)(F)F)ccc3[nH]2)c1OC (stereo not drawn) , please?
3.9

Now the same for COc1ccnc(C[S+]([O-])c2nc3cc(OCC(F)(F)F)ccc3[nH]2)c1C (stereo not drawn)
4.97

// repeat for COc1ccnc(C[S+]([O-])c2nc3cc4c(cc3[nH]2)OC(F)(F)O4)c1C (stereo not drawn) and report
4.73

Repeat for the following compound: COc1cc2[nH]c([S+]([O-])Cc3nccc(OC)c3C)nc2cc1OC(F)F (stereo not drawn)
4.96

Here is the next compound: COc1ccnc(C[S+]([O-])c2nc3cc(OC(F)(F)C(F)F)ccc3[nH]2)c1 (stereo not drawn)
4.25

Would you kindly repeat that for COc1ccnc(C[S+]([O-])c2nc3cc4c(cc3[nH]2)OC(F)(F)O4)c1 (stereo not drawn) ?
4.29

Field entry: COc1ccnc(C[S+]([O-])c2nc3cc(F)c(OC(F)F)cc3[nH]2)c1OC (stereo not drawn)
3.76

Can you check COc1cnc(C[S+]([O-])c2nc3cc(OCC(F)(F)F)ccc3[nH]2)c(C)c1OC (stereo not drawn) next?
3.72

###

# method summary: t1/2 (pH 5)
# Assay type: ADME
Provide the reported half-life of each item.
Give a bare numeral; the unit h is implied.

What half-life value was documented for this compound, COc1ccnc(C[S+]([O-])c2nc3cc(OCC(F)(F)F)ccc3[nH]2)c1C (centres undefined) ?
0.15

Next compound up: COc1ccnc(C[S+]([O-])c2nc3cc4c(cc3[nH]2)OC(F)(F)O4)c1C (centres undefined)
0.5

Also, COc1cnc(C[S+]([O-])c2nc3cc(OCC(F)(F)F)ccc3[nH]2)c(C)c1OC (centres undefined) please.
3.3

COc1ccnc(C[S+]([O-])c2nc3cc(OC(F)F)ccc3[nH]2)c1OC (centres undefined) , same question.
3

###

Provide the reported pIC50 of each item.
# experimental target: Potassium-transporting ATPase (Oryctolagus cuniculus)
# method summary: In vitro evaluation for the inhibition of H+/K+ ATPase at pH < 3 in the gastric glands of isolated rabbit stomach.
pIC50 is defined as minus the log10 of a concentration measured in mol/L.

// query pIC50 value for entry COc1ccnc(C[S+]([O-])c2nc3cc(OC(F)(F)C(F)F)ccc3[nH]2)c1OC (centres undefined)
5.30

Ok, now COc1cnc(C[S+]([O-])c2nc3cc(OC(F)(F)C(F)F)ccc3[nH]2)c(C)c1OC (centres undefined)
5.10

Param item: COc1cnc(C[S+]([O-])c2nc3cc4c(cc3[nH]2)OC(F)(F)O4)cc1OC (centres undefined)
4.20

Try this compound too: COc1ccnc(C[S+]([O-])c2nc3cc(OC(F)(F)C(F)F)ccc3[nH]2)c1C (centres undefined)
6.40

Subsequent entry: COc1cc2[nH]c([S+]([O-])Cc3nccc(OC)c3C)nc2cc1OC(F)F (centres undefined)
5.80

Thanks! And COc1ccnc(C[S+]([O-])c2nc3cc(OC(F)F)ccc3[nH]2)c1C (centres undefined) ?
6.20

Param item: COc1ccnc(C[S+]([O-])c2nc3cc(OC(F)(F)C(F)F)ccc3[nH]2)c1 (centres undefined)
5.90

And the next one, COc1ccnc(C[S+]([O-])c2nc3cc(F)c(OC(F)F)cc3[nH]2)c1OC (centres undefined) ?
5.10

Cool, now COc1ccnc(C[S+]([O-])c2nc3cc4c(cc3[nH]2)OC(F)(F)O4)c1C (centres undefined)
6.00
